Experiment: Cytotoxicity against rat H9c2 cells assessed as cell viability at 0.5 mg/ml measured after 25 hrs by CCK-8 assay
Type: toxicity, cell-based
Details: read-out: Activity
outcome_measure: viability at 25 h, 0.5 mg/ml (%)
Write down the numeric answer in % and omit the unit.

Input line: Returns the measured viability at 25 h, 0.5 mg/ml for the input molecule. Input: "C[C@]12N3Cc4c(c(OCCCS(=O)(=O)[O-])c5c(c4OCCCS(=O)(=O)[O-])CCC5)CN1C(=O)N1CN4C(=O)N5CN6C(=O)N7CN8C(=O)N9Cc%10c(c(OCCCS(=O)(=O)[O-])c%11c(c%10OCCCS(=O)(=O)[O-])CCC%11)CN%10C(=O)N(CN%11C(=O)N(CN%12C(=O)N(CN(C3=O)[C@]12C)[C@@H]4[C@H]%125)[C@@H]6[C@H]%117)[C@]8(C)[C@@]9%10C.[Na+].[Na+].[Na+].[Na+]"
Output line: 80
